- Test system: T47D
- method-summary: Cytotoxicity against human T47D cells at 10^-4 M after 48 hrs by SRB assay
- Type: functional
- assay-setup: read-out: GI
Short version: inhibition of growth at 100 µM at least 70% is Satisfied, less is Not satisfied.

- C#CCN(Cc1nc2cc(C(F)(F)F)ccc2nc1-c1ccccc1)c1ccc(C)cc1: Satisfied
- C#CCN(Cc1nc2cc(C(F)(F)F)ccc2nc1-c1ccccc1)c1ccc(F)c(F)c1: Not satisfied
- CCN(Cc1nc2cc(C(F)(F)F)ccc2nc1-c1ccccc1)c1ccc(OC)c(OC)c1: Satisfied

[ask] Reported inhibition of growth at 100 µM at or above 70%? `C#CCN(Cc1nc2cc(C(F)(F)F)ccc2nc1-c1ccccc1)c1ccc(F)cc1`
[reply] Satisfied

###

- System: MCF7
- method-summary: Cytotoxicity against human MCF7 cells assessed as cell growth at 10^-4 M after 48 hrs by alamar blue assay relative to untreated control
- Format: functional
- assay-setup: MCF7, 48 h, read-out: Activity
This listing pairs molecules with measured growth at 100 µM.
Please state the figure in %; there is no need to write the unit.

// worked examples, growth at 100 µM included
• C#CCN(Cc1nc2cc(C(F)(F)F)ccc2nc1-c1ccccc1)c1ccc(C(F)(F)F)cc1F = 87
• CCOC(=O)Cc1ccc(N(C)Cc2nc3cc(C(F)(F)F)ccc3nc2-c2ccccc2)cc1 = 105
• C#CCN(Cc1nc2cc(C(F)(F)F)ccc2nc1-c1ccccc1)c1ccc(CC(=O)OCC)cc1 = 106

[ask] Recorded growth at 100 µM for `COc1cc(N(C)Cc2nc3cc(C(F)(F)F)ccc3nc2-c2ccccc2)cc(OC)c1OC` , please?
[reply] 61

[ask] Quick one: `CCN(Cc1nc2cc(C(F)(F)F)ccc2nc1-c1ccccc1)c1ccc(OC)cc1`
[reply] 54

###

- System: SF-295
- method-summary: Cytotoxicity against human SF295 cells at 10^-4 M after 48 hrs by SRB assay
- Assay type: functional
- assay-setup: SF-295, 48 h, read-out: GI
Short version: inhibition of growth at 100 µM at least 70% is true, less is false.

• C#CCN(Cc1nc2cc(C(F)(F)F)ccc2nc1-c1ccccc1)c1ccc(C)cc1 = true
• C#CCN(Cc1nc2cc(C(F)(F)F)ccc2nc1-c1ccccc1)c1ccc(F)c(F)c1 = true
• C#CCN(Cc1nc2cc(C(F)(F)F)ccc2nc1-c1ccccc1)c1ccc(OC(F)(F)F)cc1 = false

Then there is this compound:
[ask] Reported inhibition of growth at 100 µM at or above 70%? `CCN(Cc1nc2cc(C(F)(F)F)ccc2nc1-c1ccccc1)c1ccc(OC)c(OC)c1`
[reply] true

###

Below are Ki values recorded for Thymidylate synthase (Homo sapiens).
Please state the figure in µM; there is no need to write the unit.

// worked examples, Ki included
• C#CCN(Cc1nc2cc(C(F)(F)F)ccc2nc1-c1ccccc1)c1ccc(C)cc1 = 0.51
• C#CCN(Cc1nc2cc(C(F)(F)F)ccc2nc1-c1ccccc1)c1ccc(F)c(F)c1 = 3.56

Note: attention shifts to another entry.
[ask] Give Thymidylate synthase (Homo sapiens) Ki for `C#CCN(Cc1nc2cc(C(F)(F)F)ccc2nc1-c1ccccc1)c1ccc(F)cc1`
[reply] 2.38

###

Target sequence: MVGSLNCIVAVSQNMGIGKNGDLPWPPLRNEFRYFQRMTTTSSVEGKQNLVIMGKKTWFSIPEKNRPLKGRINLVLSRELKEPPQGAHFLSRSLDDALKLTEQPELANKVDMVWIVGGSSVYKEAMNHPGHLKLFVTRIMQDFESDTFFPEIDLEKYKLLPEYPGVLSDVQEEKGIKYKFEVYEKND
measured-metric: pKi
The scale used: pKi is minus the common logarithm of the concentration in molar units.

* CCN(Cc1nc2cc(C(F)(F)F)ccc2nc1-c1ccccc1)c1ccc(OC)c(OC)c1 | 5.40
* COc1cc(N(C)Cc2nc3cc(C(F)(F)F)ccc3nc2-c2ccccc2)cc(OC)c1OC | 5.30
* C#CCN(Cc1nc2cc(C(F)(F)F)ccc2nc1-c1ccccc1)c1cc(OC)c(OC)c(OC)c1 | 5.40
* C#CCN(Cc1nc2cc(C(F)(F)F)ccc2nc1-c1ccccc1)c1ccc(C)cc1 | 5.22
* C#CCN(Cc1nc2cc(C(F)(F)F)ccc2nc1-c1ccccc1)c1ccc(OC(F)(F)F)cc1 | 5.40

[ask] Recorded pKi for `COc1ccc(N(C)Cc2nc3cc(C(F)(F)F)ccc3nc2-c2ccccc2)cc1` , please?
[reply] 5.52
